Experiment: in vitro
Conditions: human, % of cell viability compared to control, 1. measurement, HepG2, 5 µM
Entries and their viability at 5 µM
Give the value, in units of %, as a plain number.

INSERT INTO measurements (molecule, value_units, measured_result) VALUES
  ('COc1ccc2cc3[n+](cc2c1OCc1cccc(Br)c1)CCc1cc2c(cc1-3)OCO2 [16f, 9-O-(3-brombenzyl)berberine chloride]', '%', 69.4);

Determine from records and report viability at 5 µM for COc1ccc2cc3[n+](cc2c1OCc1ccc(C)cc1)CCc1cc2c(cc1-3)OCO2 [16d, 9-O-(4-methylbenzyl)berberine chloride] 70

Determine from records and report viability at 5 µM for COc1ccc2cc3[n+](cc2c1OCc1ccc(Br)cc1)CCc1cc2c(cc1-3)OCO2 [16g, 9-O-(4-brombenzyl)berberine chloride] 70.1

====

Tested on: Mycobacterium kansasii DSM 44162 (ATCC 12478)
Assay: Antimycobacterial microdilution broth assay (resazurin), M. kansasii
Type: cell-based
Conditions: Mycobacterium kansasii, 96 h, read-out: MIC M. kansasii, microdilution broth, resazurin, 96 h
Entries and their MIC
Give the value, in units of µg/mL, as a plain number.

Consider the reported MIC for these compounds:
INSERT INTO assay_data (compound, experimental_endpoint, measured_result) VALUES
  ('COc1ccc2cc3[n+](cc2c1OCc1cccc(C)c1)CCc1cc2c(cc1-3)OCO2 [16c, 9-O-(3-methylbenzyl)berberine chloride]', 'MIC', 6.25),
  ('COc1ccc2cc3[n+](cc2c1OCc1ccccc1C)CCc1cc2c(cc1-3)OCO2 [16b, 9-O-(2-methylbenzyl)berberine chloride]', 'MIC', 3.91),
  ('CCOC1c2c(ccc(OC)c2OC)-c2ccc3cc4c(cc3c2N1C)OCO4 (stereo not shown) [compound 3, 6-ethoxydihydrochelerythrine]', 'MIC', 31.2);

Determine from records and report MIC for COc1ccc2cc3[n+](cc2c1OCc1ccc(Cl)cc1)CCc1cc2c(cc1-3)OCO2 [16i, 9-O-(4-chlorbenzyl)berberine chloride] 6.25

Determine from records and report MIC for CN1Cc2c(ccc3c2OCO3)-c2ccc3cc4c(cc3c21)OCO4 [compound 1, dihydrosanguinarine] 125

Determine from records and report MIC for COc1ccc2c(c1OC)CN(C)CCc1cc3c(cc1C(=O)C2)OCO3 [compound 7, allocryptopine] 250

====

Entries and their MIC
Tested on: Mtb H37Ra ITM-M006710 (ATCC 9431)
Experiment: Antimycobacterial microdilution broth assay (resazurin), Mtb H37Ra
Format: cell-based, Mycobacterium tuberculosis
Conditions: Mycobacterium tuberculosis, calculated from MIC (µg/mL) and MW; read-out: MIC Mtb H37Ra
Give the value, in units of µM, as a plain number.

Consider the reported MIC for these molecules:
INSERT INTO results (molecule, value_units, measured_result) VALUES
  ('O=C(O)c1cn(C2CC2)c2cc(N3CCNCC3)c(F)cc2c1=O [ciprofloxacin, reference compound]', 'µM', 0.75),
  ('COc1ccc2cc3[n+](cc2c1OCc1ccc(Cl)c(Cl)c1)CCc1cc2c(cc1-3)OCO2 [16k]', 'µM', 2.78),
  ('CCOC1c2c(ccc(OC)c2OC)-c2ccc3cc4c(cc3c2N1C)OCO4 (centres unmarked) [compound 3, 6-ethoxydihydrochelerythrine]', 'µM', 79);

Let us examine a further case.
Determine from records and report MIC for COc1ccc2cc3[n+](cc2c1OC)CCc1cc2c(cc1-3)OCO2 336
